Where do the numbers come from? From ChEMBL document CHEMBL1157539.

# Test system: Plasmodium falciparum
# experiment description: GSK_TCMDC: Inhibition of Plasmodium falciparum Dd2 in whole red blood cells, using parasite LDH activity as an index of growth. Test compounds present at 2uM
# Format: functional
measured property: Inhibition (%)

> print(dat)
                                    compound  scale.unit  meas.value
 1  CS(=O)(=O)Nc1ccc2[nH]cc(C3CCN(CC4CCC(NC(=O)/C=C/c5ccccc5Cl)CC4)CC3)c2c1 (centres undefined)           %           7
 2  Cc1cc(N(C)C2CCN(C)CC2)nc(Nc2ccc(Br)cc2)n1           %          92
 3  CC[C@H]1CN2CC[C@H]1C[C@H]2[C@H](O)c1cc(-c2ccc(F)cc2)nc2ccc(OC)cc12.Cl           %          98
 4  O=C1NCN(c2ccc(O)cc2)C12CCN(CCCC(c1ccc(F)cc1)c1ccc(F)cc1)CC2           %          34
 5  O=C(/C=C/c1ccc(Cl)c(Cl)c1)Nc1cccc(CN2CCC(c3c[nH]c4ccccc34)CC2)c1           %          91
 6  COc1ccc(CC(C)NCC(O)c2cccc(Cl)c2F)cc1 (centres undefined)           %          59
 7  S=C(NCCc1ccc(Cl)cc1)N1CCC(CN2CCC(c3c[nH]c4ccccc34)CC2)CC1           %           7
 8  COc1ccc(OC)c(C=CC(=O)NC2CCC(CN3CCC(c4c[nH]c5ccccc45)CC3)CC2)c1 (centres undefined)           %          62
 9  CC[C@H]1CN2CC[C@@H]1C[C@H]2[C@H](O)c1cc(-c2ccc(Cl)c(Cl)c2)nc2ccc(O)cc12           %          99
10  CCCCNC(c1ccc(Cl)cc1)C(O)c1ccc(Cl)cc1.Cl (centres undefined)           %          98
11  CC(Cc1ccc(OCc2ccc(CCN(C)C)cc2)cc1)NCCc1cccc(Cl)c1 (centres undefined)           %          78
12  Cn1nc(C(F)(F)F)cc1-c1ccc(C(=O)NC2CCC(CN3CCC(c4c[nH]c5ccccc45)CC3)CC2)s1 (centres undefined)           %          97
13  C/C=C1\CN2CC[C@H]1C[C@H]2[C@H](O)c1ccnc2ccc(O)cc12           %           0
14    NC(=O)CN1CC=C(c2c[nH]c3ccc(Br)cc23)CC1           %           0
15  C=C[C@H]1CN2CC[C@H]1C[C@H]2[C@H](O)c1ccnc2ccccc12           %           3
16  CCOC(=O)c1c(CN2CCN(C)CC2)n(Cc2ccccc2)c2cc(Br)c(O)cc12           %          46
17  CCOC(C(=O)OCC1CCCN1C(C)C)(c1ccccc1)c1ccccc1 (centres undefined)           %           2
18  CC(=O)C1(c2ccccc2)CCN(CCC2(c3ccc(Cl)c(Cl)c3)CN(C(=O)CC(C)C)CCO2)CC1 (centres undefined)           %          94
19  Br.CC(Cc1ccc(CSC(C)C)cc1)NCC(O)c1cccc(Cl)c1 (centres undefined)           %          98
